Recorded values, source patent US8163909B2.

details: rat, microsomes, 1 μM, pH 7.4
VALUE TYPE: RLM

# COMPOUND, VALUE TYPE, MEASURED
records = [
    ("COCC(=O)N[C@@H](Cc1cccc(-c2nccs2)c1)[C@H](O)CN[C@H]1C[C@]2(CCOC2)Oc2ncc(CC(C)(C)C)cc21 [compound 822]", "RLM", "101 µL/min/mg"),
    ("C#Cc1cccc(C[C@H](NC(=O)COC)[C@H](O)CN[C@H]2C[C@]3(CCOC3)Oc3ncc(CC(C)(C)C)cc32)c1 [compound 824]", "RLM", "28 µL/min/mg"),
    ("COCC(=O)N[C@@H](Cc1cccc(-c2nccs2)c1)[C@H](O)CN[C@H]1C[C@]2(CCOC2)Oc2ncc(CC(C)(C)C)cc21 [compound 845]", "RLM", "152 µL/min/mg"),
    ("COCC(=O)N[C@@H](Cc1ccc(F)cc1)[C@H](O)CN[C@H]1CC2(CCC2)Oc2c1cc(CC(C)(C)C)nc2-c1c[nH]cn1", "RLM", "40 µL/min/mg"),
    ("COCC(=O)N[C@@H](Cc1cccc(-c2nccs2)c1)[C@H](O)CN[C@H]1C[C@@]2(CCOC2)Oc2ncc(CC(C)(C)C)cc21 [compound 814]", "RLM", "112 µL/min/mg"),
    ("COCC(=O)N[C@@H](Cc1cc(F)cc(F)c1)[C@H](O)CN[C@H]1CC2(CCC2)Oc2c1cc([C@H]1CC1(C)C)nc2-c1ccncc1 [compound 678]", "RLM", "79 µL/min/mg"),
    ("COCC(=O)N[C@@H](Cc1cccc(-c2nccs2)c1)[C@H](O)CN[C@H]1C[C@@]2(CCOC2)Oc2ncc(CC(C)(C)C)cc21 [compound 846]", "RLM", "128 µL/min/mg"),
    ("C#Cc1cccc(C[C@H](NC(=O)COC)[C@H](O)CN[C@H]2C[C@]3(CCOC3)Oc3ncc(CC(C)(C)C)cc32)c1 [compound 868]", "RLM", "86 µL/min/mg"),
    ("COCC(=O)N[C@@H](Cc1cc(F)cc(F)c1)[C@H](O)CN[C@H]1CC2(CCC2)Oc2c1cc([C@H]1CC1(C)C)nc2-c1ccncc1 [compound 703]", "RLM", "118 µL/min/mg"),
    ("COCC(=O)N[C@@H](Cc1cccc(-c2nccs2)c1)[C@H](O)CN[C@H]1C[C@@]2(CCOC2)Oc2ncc(CC(C)(C)C)cc21 [compound 823]", "RLM", "171 µL/min/mg"),
]

====

target: CYP2D6 (Homo sapiens); assay: CYP2D6 inhibition assay (bufuralol, pooled human liver microsomes)
Sequence (P10635 whole entry): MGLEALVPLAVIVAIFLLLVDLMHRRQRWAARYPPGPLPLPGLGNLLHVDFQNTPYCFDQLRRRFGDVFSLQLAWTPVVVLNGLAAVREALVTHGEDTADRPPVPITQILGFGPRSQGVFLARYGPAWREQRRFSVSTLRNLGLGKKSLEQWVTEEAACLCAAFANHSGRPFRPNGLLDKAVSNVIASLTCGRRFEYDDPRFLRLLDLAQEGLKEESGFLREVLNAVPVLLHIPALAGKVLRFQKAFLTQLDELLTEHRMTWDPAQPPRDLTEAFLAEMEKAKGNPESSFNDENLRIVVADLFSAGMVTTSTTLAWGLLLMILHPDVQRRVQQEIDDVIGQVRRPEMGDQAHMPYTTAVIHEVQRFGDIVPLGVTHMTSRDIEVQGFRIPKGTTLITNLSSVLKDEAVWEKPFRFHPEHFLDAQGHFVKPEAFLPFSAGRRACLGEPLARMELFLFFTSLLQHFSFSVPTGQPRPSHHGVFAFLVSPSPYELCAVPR
pIC50: −log10 of the molar value.
VALUE TYPE: pIC50

# GIVEN SMILES, MEASURED
records = [
    ("C#Cc1cc(C[C@H](NC(=O)COC)[C@H](O)CN[C@H]2CC3(CCC3)Oc3ncc(CC(C)C)cc32)ccc1F", 5.85),
]

====

molecular target: Beta Secretase enzyme (BACE) (Homo sapiens, UniProt P56817); experiment: In vitro enzymatic BACE FRET (fluorescence resonance energy transfer) assay; type: biochemical; conditions: BACE enzyme assay, IC50's in uM; read-out: BACE1 FRET assay;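 further: fluorescence read after 1 h with 50 nM quenched peptide substrate spanning the BACE cleavage site, in pH 4.2 acetate buffer containing 10% DMSO and nonionic detergent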
Sequence (P56817 46-501): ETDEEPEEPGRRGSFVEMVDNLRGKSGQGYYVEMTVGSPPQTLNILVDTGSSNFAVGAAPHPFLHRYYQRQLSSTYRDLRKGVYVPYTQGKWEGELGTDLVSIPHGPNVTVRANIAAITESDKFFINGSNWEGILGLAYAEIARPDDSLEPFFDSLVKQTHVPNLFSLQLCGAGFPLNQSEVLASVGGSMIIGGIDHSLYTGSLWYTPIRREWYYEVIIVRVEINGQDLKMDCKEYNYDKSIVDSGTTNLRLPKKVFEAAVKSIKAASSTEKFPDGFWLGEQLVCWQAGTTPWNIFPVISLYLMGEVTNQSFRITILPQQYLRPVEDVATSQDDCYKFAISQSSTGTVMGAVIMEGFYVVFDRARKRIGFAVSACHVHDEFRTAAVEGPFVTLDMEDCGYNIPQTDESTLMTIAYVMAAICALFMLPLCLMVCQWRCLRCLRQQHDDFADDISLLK
IC50 values by entry

# COMPOUND, IC50, µM
measured = [
    ("CCCc1cnc2c(c1)[C@@H](NC[C@@H](O)[C@H](Cc1cc(F)cc(-c3nccs3)c1)NC(=O)COC)CC1(CCC1)O2 [compound 865]", 0.086),
    ("CC(C)(C)Cc1cnc2c(c1)[C@@H](NC[C@@H](O)[C@H](Cc1cc(F)cc(-c3nccs3)c1)NC(=O)[C@H]1CCCO1)CC1(CCC1)O2 [compound 877]", 0.005),
    ("C#CCCC(=O)N[C@@H](Cc1cccc(F)c1)[C@H](O)CN[C@H]1CC2(CCC2)Oc2ncc(CC(C)(C)C)cc21 [compound 859]", 0.004),
]
